assay: Pharmacokinetics of Compound I after single and multiple oral doses of solid dispersion tablets; type: in vivo, human; conditions: human, in vivo, 5 mg
reported.property: AUC(0-inf) (ng·h/mL)
Numbers only; they are read as ng·h/mL.

[in] Retrieve AUC(0-inf) measured for "COC[C@H]1C[C@@H](c2ncc(-c3ccc4c(c3)COc3cc5c(ccc6nc([C@@H]7CC[C@H](C)N7C(=O)[C@@H](NC(=O)OC)C(C)C)[nH]c65)cc3-4)[nH]2)N(C(=O)[C@H](NC(=O)OC)c2ccccc2)C1" and print it.
[out] 159

###

assay: Pharmacokinetics of Compound I after single and multiple oral doses of solid dispersion tablets; type: in vivo, human; conditions: human, in vivo, 100 mg
reported.property: AUC(0-inf) (ng·h/mL)
Numbers only; they are read as ng·h/mL.

[in] Retrieve AUC(0-inf) measured for COC[C@H]1C[C@@H](c2ncc(-c3ccc4c(c3)COc3cc5c(ccc6nc([C@@H]7CC[C@H](C)N7C(=O)[C@@H](NC(=O)OC)C(C)C)[nH]c65)cc3-4)[nH]2)N(C(=O)[C@H](NC(=O)OC)c2ccccc2)C1 [Compound I] and print it.
[out] 5060

Hey, just so you know, these numbers are from patent US20150064252A1.
